biological target: Serine/threonine-protein kinase pim-2 (Homo sapiens); conditions: at 0.1 µM
Here, each record is paired with measured inhibition data.
All answers are understood in %, so give the number only.

Worked cases, answers included:
GIVEN_SMILES: COc1ccc(-c2cc3c(N)ncnc3o2)cc1
TARGET_OF_ASSAY: Serine/threonine-protein kinase pim-2 (Homo sapiens)
inhibition [%]: 0.27
//
GIVEN_SMILES: Fc1ccc(-c2nn3ncccc3c2-c2ccnc(Nc3ccc4c(c3)OCCO4)n2)cc1
TARGET_OF_ASSAY: Serine/threonine-protein kinase pim-2 (Homo sapiens)
inhibition [%]: 0.26
//
GIVEN_SMILES: COc1ccc(-c2cc(-c3c[nH]nc3-c3ccccn3)ccn2)cc1
TARGET_OF_ASSAY: Serine/threonine-protein kinase pim-2 (Homo sapiens)
inhibition [%]: 0.36
//
GIVEN_SMILES: CCCN1CCC(c2ccc(Nc3nc(Nc4cc(F)ccc4C(N)=O)c4cc[nH]c4n3)c(OC)c2)CC1
TARGET_OF_ASSAY: Serine/threonine-protein kinase pim-2 (Homo sapiens)
inhibition [%]: 1.98
//
GIVEN_SMILES: Cc1cccc2c1NC(=O)/C2=N\Nc1ccc(S(N)(=O)=O)cc1
TARGET_OF_ASSAY: Serine/threonine-protein kinase pim-2 (Homo sapiens);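 also: reported value is the mean percent inhibition of PIM2, measured in the GSK PKIS kinase inhibitor set screen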
inhibition [%]: 0.28

Exam item: Look up and state reported inhibition for CCN1CCC(CC(=O)Nc2n[nH]c3nnc(-c4cccc(F)c4F)cc23)CC1
Marked response: 0.39

Exam item: Look up and state reported inhibition for FC(F)(F)c1cccc(-c2nn3ncccc3c2-c2ccnc(Nc3ccc4c(c3)OCCO4)n2)c1
Marked response: -0.06

Exam item: Look up and state reported inhibition for COC(=O)Nc1nc2ccc(S(=O)(=O)c3ccc(NC(=O)Nc4cc(C(F)(F)F)ccc4F)cc3)cc2[nH]1
Marked response: -0.06

Exam item: Look up and state reported inhibition for Clc1ccc(-c2nn3ncccc3c2-c2ccnc(Nc3ccccc3)n2)cc1
Marked response: 0.34

Exam item: Look up and state reported inhibition for COc1ccc(-c2oc3ncnc(N)c3c2-c2ccc(NC(=O)Nc3cc(C(F)(F)F)ccc3F)cc2)cc1
Marked response: 0.28

Exam item: Look up and state reported inhibition for CCn1cc(-c2ccnc3[nH]ccc23)c(-c2cccc(NC(=O)Nc3ccc(OCc4ccccc4)cc3)c2)n1
Marked response: 0.19

* * *

target: Macrophage colony-stimulating factor 1 receptor (Homo sapiens); details: at 1 µM
Answer not fulfilled if inhibition is under 5%, and fulfilled if it is 5% or more.

Some solved cases for reference:
GIVEN_SMILES: CC(=O)Nc1cccc(C#Cc2cncnc2Nc2ccc(OCc3cccc(F)c3)c(Cl)c2)c1
TARGET_OF_ASSAY: Macrophage colony-stimulating factor 1 receptor (Homo sapiens)
GROUP: not fulfilled

GIVEN_SMILES: CCn1c(-c2nonc2N)nc2c(C#CC(C)(C)O)ncc(OC3CCNCC3)c21
TARGET_OF_ASSAY: Macrophage colony-stimulating factor 1 receptor (Homo sapiens)
GROUP: not fulfilled

GIVEN_SMILES: COc1ccc(-c2cc(-c3c[nH]nc3-c3ccccn3)ccn2)cc1
TARGET_OF_ASSAY: Macrophage colony-stimulating factor 1 receptor (Homo sapiens);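 also: mean inhibition of FMS, from the GSK PKIS screening set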
GROUP: fulfilled

Exam item: Reported inhibition reaches at least 5% for [O-][S+]1CCN(Cc2ccc(-c3ccc4ncnc(Nc5ccc(OCc6cccc(F)c6)c(Cl)c5)c4c3)o2)CC1 ?
Marked response: fulfilled

Exam item: Reported inhibition reaches at least 5% for COc1cc(/C=N/Nc2ncnc3[nH]ncc23)ccc1O ?
Marked response: fulfilled

Exam item: Reported inhibition reaches at least 5% for CC(=O)NCc1cccc(C#Cc2cncnc2Nc2ccc(OCc3cccc(F)c3)c(Cl)c2)c1 ?
Marked response: not fulfilled

Exam item: Reported inhibition reaches at least 5% for Fc1ccc(-c2nn3ncccc3c2-c2ccnc(Nc3ccc4c(c3)OCCO4)n2)cc1 ?
Marked response: fulfilled

* * *

target: Vascular endothelial growth factor receptor 2 (Homo sapiens) (UniProt P35968); conditions: at 1 µM
Sequence (P35968 whole entry): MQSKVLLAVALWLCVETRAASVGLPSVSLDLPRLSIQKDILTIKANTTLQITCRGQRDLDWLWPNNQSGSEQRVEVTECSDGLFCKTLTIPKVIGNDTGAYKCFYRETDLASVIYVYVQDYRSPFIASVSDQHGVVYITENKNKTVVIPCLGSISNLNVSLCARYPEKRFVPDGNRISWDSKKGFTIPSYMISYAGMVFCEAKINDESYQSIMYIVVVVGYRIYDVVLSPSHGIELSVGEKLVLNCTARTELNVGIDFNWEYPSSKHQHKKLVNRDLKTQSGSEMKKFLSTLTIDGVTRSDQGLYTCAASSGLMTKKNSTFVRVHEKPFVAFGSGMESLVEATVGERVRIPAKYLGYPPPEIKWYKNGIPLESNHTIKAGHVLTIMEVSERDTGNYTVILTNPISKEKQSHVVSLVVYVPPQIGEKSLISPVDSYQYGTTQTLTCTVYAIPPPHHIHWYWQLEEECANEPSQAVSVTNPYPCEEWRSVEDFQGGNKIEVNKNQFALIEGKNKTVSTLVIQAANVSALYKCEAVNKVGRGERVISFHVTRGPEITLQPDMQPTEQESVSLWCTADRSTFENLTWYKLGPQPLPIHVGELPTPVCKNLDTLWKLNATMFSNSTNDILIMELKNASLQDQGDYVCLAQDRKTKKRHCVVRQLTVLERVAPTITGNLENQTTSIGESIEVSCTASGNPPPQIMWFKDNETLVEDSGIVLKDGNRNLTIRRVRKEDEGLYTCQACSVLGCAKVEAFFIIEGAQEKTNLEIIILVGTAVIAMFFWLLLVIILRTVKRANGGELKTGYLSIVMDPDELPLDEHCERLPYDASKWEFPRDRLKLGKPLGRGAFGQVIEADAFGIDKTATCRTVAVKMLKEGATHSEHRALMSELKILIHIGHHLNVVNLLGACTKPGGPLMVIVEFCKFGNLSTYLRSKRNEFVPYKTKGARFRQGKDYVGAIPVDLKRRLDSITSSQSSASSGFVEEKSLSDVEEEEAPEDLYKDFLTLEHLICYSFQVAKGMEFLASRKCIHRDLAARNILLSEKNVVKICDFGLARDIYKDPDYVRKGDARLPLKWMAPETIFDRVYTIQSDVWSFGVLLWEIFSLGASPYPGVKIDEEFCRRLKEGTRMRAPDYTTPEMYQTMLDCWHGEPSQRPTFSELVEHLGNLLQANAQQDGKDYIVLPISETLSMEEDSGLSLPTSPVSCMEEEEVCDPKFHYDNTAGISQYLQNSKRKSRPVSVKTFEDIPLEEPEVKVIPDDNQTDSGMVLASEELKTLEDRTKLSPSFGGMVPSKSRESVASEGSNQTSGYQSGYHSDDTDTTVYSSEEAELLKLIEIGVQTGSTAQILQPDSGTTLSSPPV
Answer criterion not met if inhibition is under 9%, and criterion met if it is 9% or more.

Some solved cases for reference:
GIVEN_SMILES: FC(F)(F)c1cccc(-c2nn3ncccc3c2-c2ccnc(Nc3ccc4c(c3)OCCO4)n2)c1
TARGET_OF_ASSAY: Vascular endothelial growth factor receptor 2 (Homo sapiens) (UniProt P35968)
GROUP: criterion met
//
GIVEN_SMILES: COC(=O)c1sc(-n2cnc3cc(OC)c(OC)cc32)cc1OCc1ccccc1C(F)(F)F
TARGET_OF_ASSAY: Vascular endothelial growth factor receptor 2 (Homo sapiens) (UniProt P35968)
GROUP: criterion met
//
GIVEN_SMILES: COC(=O)Nc1nc2ccc(S(=O)(=O)c3ccc(NC(=O)Nc4cc(C(F)(F)F)ccc4F)cc3)cc2[nH]1
TARGET_OF_ASSAY: Vascular endothelial growth factor receptor 2 (Homo sapiens) (UniProt P35968);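 also: each value is the mean percent inhibition of KDR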
GROUP: criterion not met

Exam item: Reported inhibition reaches at least 9% for CS(=O)(=O)CCNCc1coc(-c2ccc3ncnc(Nc4ccc(OCc5ccccc5)cc4)c3c2)c1 ?
Marked response: criterion not met

Exam item: Reported inhibition reaches at least 9% for O=C(O[C@H]1CN[C@H](C#Cc2cc3ncnc(Nc4ccc(Cc5ccccc5)cc4)c3s2)C1)N1CCOCC1 ?
Marked response: criterion not met

Exam item: Reported inhibition reaches at least 9% for Cc1ccc2c(-c3ccnc(Nc4ccccc4)n3)c(-c3ccc(F)cc3)nn2n1 ?
Marked response: criterion met

* * *

target: RAF proto-oncogene serine/threonine-protein kinase (Homo sapiens) (UniProt P04049); details: at 0.1 µM;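 also: values are mean CRAF kinase inhibition from profiling of the GSK Published Kinase Inhibitor Set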
Sequence (P04049 whole entry): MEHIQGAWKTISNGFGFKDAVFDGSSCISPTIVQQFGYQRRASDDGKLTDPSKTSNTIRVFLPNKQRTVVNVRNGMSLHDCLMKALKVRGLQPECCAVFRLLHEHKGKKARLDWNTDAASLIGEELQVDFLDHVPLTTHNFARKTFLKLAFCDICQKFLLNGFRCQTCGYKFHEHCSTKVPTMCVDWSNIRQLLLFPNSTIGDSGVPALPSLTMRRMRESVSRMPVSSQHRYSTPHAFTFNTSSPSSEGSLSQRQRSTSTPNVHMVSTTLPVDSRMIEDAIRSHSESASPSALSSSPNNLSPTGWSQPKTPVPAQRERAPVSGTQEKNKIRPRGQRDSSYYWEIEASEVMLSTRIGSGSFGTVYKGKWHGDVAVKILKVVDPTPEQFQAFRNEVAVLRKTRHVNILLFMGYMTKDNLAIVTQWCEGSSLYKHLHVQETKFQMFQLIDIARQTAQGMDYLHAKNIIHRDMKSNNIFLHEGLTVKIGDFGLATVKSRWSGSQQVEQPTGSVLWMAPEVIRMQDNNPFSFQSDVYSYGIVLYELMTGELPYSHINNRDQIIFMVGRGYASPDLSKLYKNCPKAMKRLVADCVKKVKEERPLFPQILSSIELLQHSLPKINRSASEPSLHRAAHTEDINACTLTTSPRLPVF
Here, each record is paired with measured inhibition data.
All answers are understood in %, so give the number only.

Worked cases, answers included:
GIVEN_SMILES: Nc1ncc(-c2cccc(S(N)(=O)=O)c2)c2scc(-c3ccc(F)c(Cl)c3)c12
UNITS: %
inhibition: -0.36

GIVEN_SMILES: CC(=O)NCc1cccc(C#Cc2cncnc2Nc2ccc(OCc3cccc(F)c3)c(Cl)c2)c1
UNITS: %
inhibition: 4.54

GIVEN_SMILES: CS(=O)(=O)CCNCc1coc(-c2ccc3ncnc(Nc4ccc(OCc5ccccc5)cc4)c3c2)c1
UNITS: %
inhibition: 2.12

Attention now shifts to the item below.
Exam item: Look up and state reported inhibition for CCCN(CCS(C)(=O)=O)Cc1ccc(-c2ccc3ncnc(Nc4ccc(OCc5cccc(F)c5)c(Cl)c4)c3c2)o1
Marked response: 1.57

* * *

biological target: Serine/threonine-protein kinase Nek9 (Homo sapiens) (UniProt Q8TD19); settings: at 0.1 µM
Sequence (Q8TD19 whole entry): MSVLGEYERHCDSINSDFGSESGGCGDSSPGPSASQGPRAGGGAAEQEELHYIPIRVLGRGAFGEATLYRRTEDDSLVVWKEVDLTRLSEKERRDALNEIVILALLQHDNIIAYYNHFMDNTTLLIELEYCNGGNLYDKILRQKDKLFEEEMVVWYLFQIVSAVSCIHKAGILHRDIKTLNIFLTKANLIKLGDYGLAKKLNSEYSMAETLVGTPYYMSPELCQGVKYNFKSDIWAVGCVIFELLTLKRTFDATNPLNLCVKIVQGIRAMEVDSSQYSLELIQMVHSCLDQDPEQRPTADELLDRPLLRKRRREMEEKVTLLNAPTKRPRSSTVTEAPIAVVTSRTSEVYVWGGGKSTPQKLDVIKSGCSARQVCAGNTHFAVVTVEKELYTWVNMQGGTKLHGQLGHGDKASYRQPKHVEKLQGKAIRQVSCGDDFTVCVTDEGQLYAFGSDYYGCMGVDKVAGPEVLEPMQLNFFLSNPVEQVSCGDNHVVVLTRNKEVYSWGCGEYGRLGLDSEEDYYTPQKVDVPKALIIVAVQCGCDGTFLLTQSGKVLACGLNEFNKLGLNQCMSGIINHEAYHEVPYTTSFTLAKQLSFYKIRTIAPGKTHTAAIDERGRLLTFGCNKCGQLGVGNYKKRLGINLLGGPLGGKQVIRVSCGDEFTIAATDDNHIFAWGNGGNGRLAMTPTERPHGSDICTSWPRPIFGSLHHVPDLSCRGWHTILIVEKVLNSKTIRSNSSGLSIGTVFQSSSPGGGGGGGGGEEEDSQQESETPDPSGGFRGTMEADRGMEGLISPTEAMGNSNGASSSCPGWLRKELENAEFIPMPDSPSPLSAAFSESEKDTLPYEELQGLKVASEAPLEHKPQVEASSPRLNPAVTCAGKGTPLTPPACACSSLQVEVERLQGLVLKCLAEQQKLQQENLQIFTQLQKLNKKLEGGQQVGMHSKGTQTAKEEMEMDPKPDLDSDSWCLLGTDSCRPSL
METRIC: inhibition (%)
All answers are understood in %, so give the number only.

Worked cases, answers included:
GIVEN_SMILES: CS(=O)(=O)CCNCc1ccc(-c2ccc3ncnc(Nc4ccc(OCc5ccccc5)c(C(F)(F)F)c4)c3c2)o1
TARGET_OF_ASSAY: Serine/threonine-protein kinase Nek9 (Homo sapiens) (UniProt Q8TD19)
UNITS: %
inhibition: 7.54
//
GIVEN_SMILES: Cc1cccc2c1NC(=O)/C2=N\Nc1ccc(S(N)(=O)=O)cc1
TARGET_OF_ASSAY: Serine/threonine-protein kinase Nek9 (Homo sapiens) (UniProt Q8TD19)
UNITS: %
inhibition: 4.06
//
GIVEN_SMILES: CCn1c(-c2nonc2N)nc2c(C#CC(C)(C)O)ncc(OC3CCNCC3)c21
TARGET_OF_ASSAY: Serine/threonine-protein kinase Nek9 (Homo sapiens) (UniProt Q8TD19);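 also: reported value is the mean percent inhibition of NEK9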
UNITS: %
inhibition: 2.14

Exam item: Look up and state reported inhibition for NS(=O)(=O)c1ccc(Nc2ncc(-c3ccccc3)o2)cc1
Marked response: 3.91

* * *

target: Serine/threonine-protein kinase MARK1 (Homo sapiens) (UniProt Q9P0L2); conditions: at 0.1 µM
Sequence (Q9P0L2 whole entry, looked up): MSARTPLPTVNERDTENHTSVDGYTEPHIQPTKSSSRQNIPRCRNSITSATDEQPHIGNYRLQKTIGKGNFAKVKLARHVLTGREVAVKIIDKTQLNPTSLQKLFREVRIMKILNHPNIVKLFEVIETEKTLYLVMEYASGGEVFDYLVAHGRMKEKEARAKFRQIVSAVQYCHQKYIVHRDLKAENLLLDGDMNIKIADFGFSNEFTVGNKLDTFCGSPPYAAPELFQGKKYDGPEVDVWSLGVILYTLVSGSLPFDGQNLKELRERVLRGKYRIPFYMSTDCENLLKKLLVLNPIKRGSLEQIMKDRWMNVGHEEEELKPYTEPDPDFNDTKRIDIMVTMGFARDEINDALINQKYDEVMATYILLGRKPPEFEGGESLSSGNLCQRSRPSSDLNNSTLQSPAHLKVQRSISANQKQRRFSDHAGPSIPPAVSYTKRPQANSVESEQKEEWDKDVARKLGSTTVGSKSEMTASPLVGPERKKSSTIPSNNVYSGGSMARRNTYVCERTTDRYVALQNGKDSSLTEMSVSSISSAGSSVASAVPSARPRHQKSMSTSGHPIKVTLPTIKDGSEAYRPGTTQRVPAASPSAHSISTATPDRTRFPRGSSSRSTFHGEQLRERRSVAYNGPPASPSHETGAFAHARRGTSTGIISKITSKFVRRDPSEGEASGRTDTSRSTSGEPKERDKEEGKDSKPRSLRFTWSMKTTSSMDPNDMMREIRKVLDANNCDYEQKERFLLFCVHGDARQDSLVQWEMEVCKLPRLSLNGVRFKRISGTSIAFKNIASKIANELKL
Description: GSK_PKIS: MARK1 mean inhibition at 0.1 uM [Nanosyn]
METRIC: inhibition

GIVEN_SMILES: Cc1ccc2c(-c3ccnc(Nc4ccccc4)n3)c(-c3ccc(F)cc3)nn2n1
TARGET_OF_ASSAY: Serine/threonine-protein kinase MARK1 (Homo sapiens) (UniProt Q9P0L2)
inhibition: 2.17%
//
GIVEN_SMILES: CCCN(CCS(C)(=O)=O)Cc1ccc(-c2ccc3ncnc(Nc4ccc(OCc5cccc(F)c5)c(Cl)c4)c3c2)o1
TARGET_OF_ASSAY: Serine/threonine-protein kinase MARK1 (Homo sapiens) (UniProt Q9P0L2)
inhibition: 0.08%
//
GIVEN_SMILES: CC(=O)NCc1cccc(C#Cc2cncnc2Nc2ccc(OCc3cccc(F)c3)c(Cl)c2)c1
TARGET_OF_ASSAY: Serine/threonine-protein kinase MARK1 (Homo sapiens) (UniProt Q9P0L2)
inhibition: 1.88%

Exam item: Look up and state reported inhibition for Nc1nc(-c2cccc(Cl)c2)c(-c2ccc3ncccc3n2)s1
Marked response: 5.51%

Exam item: Look up and state reported inhibition for COc1ccc(-c2oc3ncnc(N)c3c2-c2ccc(NC(=O)Nc3cc(C(F)(F)F)ccc3F)cc2)cc1
Marked response: 3.02%

Exam item: Look up and state reported inhibition for CNC(=O)c1cccc(C#Cc2cncnc2Nc2ccc(OCc3cccc(F)c3)c(Cl)c2)c1
Marked response: -0.72%

Exam item: Look up and state reported inhibition for COc1cc2ncn(-c3cc(OCc4ccccc4C(F)(F)F)c(C(=O)N(C)C)s3)c2cc1OC
Marked response: 0.44%
